Where these numbers come from: ChEMBL document CHEMBL1154171

target-desc: Cytochrome P450 1A2 (Homo sapiens)
Sequence (P05177 whole entry): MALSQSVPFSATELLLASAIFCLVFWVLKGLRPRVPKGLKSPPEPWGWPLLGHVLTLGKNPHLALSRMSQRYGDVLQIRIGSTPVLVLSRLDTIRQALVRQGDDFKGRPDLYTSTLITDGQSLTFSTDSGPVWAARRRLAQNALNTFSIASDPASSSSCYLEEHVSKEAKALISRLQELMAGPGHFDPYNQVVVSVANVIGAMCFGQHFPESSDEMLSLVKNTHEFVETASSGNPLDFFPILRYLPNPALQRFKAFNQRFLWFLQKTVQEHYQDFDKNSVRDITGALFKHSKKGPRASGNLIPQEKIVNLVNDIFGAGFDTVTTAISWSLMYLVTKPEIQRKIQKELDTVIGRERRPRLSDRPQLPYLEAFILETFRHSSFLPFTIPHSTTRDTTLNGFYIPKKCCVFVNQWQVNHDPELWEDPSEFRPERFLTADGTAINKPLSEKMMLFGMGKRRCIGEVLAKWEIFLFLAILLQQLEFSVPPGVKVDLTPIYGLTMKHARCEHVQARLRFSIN
pIC50: −log10 of the molar value.
property-label: pIC50

Quick one: pIC50 for `C[C@@]1(C(=O)Nc2ccc(F)nc2)CCCN1c1nc(Nc2cc(C3CC3)n[nH]2)c2cccn2n1` ?
< 4.40

---

target-desc: Cyclin-dependent kinase 2/cyclin E (Homo sapiens, UniProt P24941)
assay-overview: Inhibition of CDK2/Cyclin E after 60 mins by fluorescence electrophoresis
Assay type: protein-complex assay
property-label: pIC50
Recall that pIC50 is obtained by taking minus log10 of the concentration measured in molar.

Please tell me: pIC50 of `O=C(Nc1cccnc1)[C@@H]1CCCN1c1nc(Nc2cc(C3CC3)[nH]n2)c2cccn2n1` , system Cyclin-dependent kinase 2/cyclin E (Homo sapiens, UniProt P24941)?
6.24

Another: `O=C(Nc1ccccc1)[C@@H]1CCCN1c1nc(Nc2cc(C3CC3)[nH]n2)c2cccn2n1`
6.49

Same question for `CN(C(=O)[C@@H]1CCCN1c1nc(Nc2cc(C3CC3)[nH]n2)c2cccn2n1)c1ccccc1` please.
6.70

Another compound: `O=C(Nc1nccs1)[C@@H]1CCCN1c1nc(Nc2cc(C3CC3)[nH]n2)c2cccn2n1`
7.40

Param item: `NC(=O)[C@@H]1CCCN1c1nc(Nc2cc(C3CC3)[nH]n2)c2cccn2n1`
8.70

Please do the same for `Cc1ccc(NC(=O)[C@@H]2CCCN2c2nc(Nc3cc(C4CC4)[nH]n3)c3cccn3n2)cc1` as well.
5.85

Another compound to look at: `NC(=O)[C@H]1CCCN1c1nc(Nc2cc(C3CC3)[nH]n2)c2cccn2n1`
7.62

Would you mind doing `C[C@@]1(C(=O)Nc2cccnc2)CCCN1c1nc(Nc2cc(C3CC3)[nH]n2)c2cccn2n1` as well?
5.84

---

assay-overview: Permeability across human Caco-2 cells
Type: ADME, cell-based
assay-setup: read-out: permeability
property-label: Papp (×10⁻⁶ cm/s)
Only the number, expressed in ×10⁻⁶ cm/s, is required.

Look up Papp for this molecule: `C[C@@]1(C(=O)Nc2ccc(F)nc2)CCCN1c1nc(Nc2cc(C3CC3)n[nH]2)c2cccn2n1`
14.1

---

assay-overview: cells
assay-setup: Mus musculus, Sal
property-label: pIC50
As a rule, pIC50 stands for the negative log10 of the concentration, concentration in M.

What value of pIC50 has been reported for the following compound? `O=C(Nc1nccs1)[C@@H]1CCCN1c1nc(Nc2cc(C3CC3)[nH]n2)c2cccn2n1`
7.16

Now try `O=C(Nc1ccccc1)[C@@H]1CCCN1c1nc(Nc2cc(C3CC3)[nH]n2)c2cccn2n1` .
6.88

Same question, `NC(=O)[C@H]1CCCN1c1nc(Nc2cc(C3CC3)[nH]n2)c2cccn2n1` this time
6.51

Ok, now `O=C(Nc1cccnc1)[C@@H]1CCCN1c1nc(Nc2cc(C3CC3)[nH]n2)c2cccn2n1`
7.41

Okay, and `NC(=O)[C@@H]1CCCN1c1nc(Nc2cc(C3CC3)[nH]n2)c2cccn2n1` ?
7.33

Another compound to look at: `Cc1ccc(NC(=O)[C@@H]2CCCN2c2nc(Nc3cc(C4CC4)[nH]n3)c3cccn3n2)cc1`
6.37

What would you report for `C[C@@]1(C(=O)Nc2cccnc2)CCCN1c1nc(Nc2cc(C3CC3)[nH]n2)c2cccn2n1` ?
7.62

---

target-desc: Insulin-like growth factor 1 receptor (Homo sapiens, UniProt P08069)
Sequence (P08069 31-736 limits assumed): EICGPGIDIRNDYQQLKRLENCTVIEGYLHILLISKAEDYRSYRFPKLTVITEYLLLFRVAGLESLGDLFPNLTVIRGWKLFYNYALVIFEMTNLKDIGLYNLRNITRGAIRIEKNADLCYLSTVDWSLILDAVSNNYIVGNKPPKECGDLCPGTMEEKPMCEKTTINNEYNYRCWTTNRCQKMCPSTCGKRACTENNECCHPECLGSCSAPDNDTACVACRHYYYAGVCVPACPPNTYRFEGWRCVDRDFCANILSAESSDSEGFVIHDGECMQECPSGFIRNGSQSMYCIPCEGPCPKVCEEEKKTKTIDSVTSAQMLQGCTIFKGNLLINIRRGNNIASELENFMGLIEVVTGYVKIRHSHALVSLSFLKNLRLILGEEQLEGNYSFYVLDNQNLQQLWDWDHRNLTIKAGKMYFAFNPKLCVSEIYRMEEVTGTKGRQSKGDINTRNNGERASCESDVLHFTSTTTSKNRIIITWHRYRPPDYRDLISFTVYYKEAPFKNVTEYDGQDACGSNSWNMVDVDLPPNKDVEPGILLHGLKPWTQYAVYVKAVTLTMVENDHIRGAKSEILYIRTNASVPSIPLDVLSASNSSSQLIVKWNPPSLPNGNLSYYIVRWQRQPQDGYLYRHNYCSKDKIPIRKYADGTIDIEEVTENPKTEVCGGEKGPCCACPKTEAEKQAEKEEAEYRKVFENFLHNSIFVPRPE
Sequence (P08069 741-1367 limits assumed): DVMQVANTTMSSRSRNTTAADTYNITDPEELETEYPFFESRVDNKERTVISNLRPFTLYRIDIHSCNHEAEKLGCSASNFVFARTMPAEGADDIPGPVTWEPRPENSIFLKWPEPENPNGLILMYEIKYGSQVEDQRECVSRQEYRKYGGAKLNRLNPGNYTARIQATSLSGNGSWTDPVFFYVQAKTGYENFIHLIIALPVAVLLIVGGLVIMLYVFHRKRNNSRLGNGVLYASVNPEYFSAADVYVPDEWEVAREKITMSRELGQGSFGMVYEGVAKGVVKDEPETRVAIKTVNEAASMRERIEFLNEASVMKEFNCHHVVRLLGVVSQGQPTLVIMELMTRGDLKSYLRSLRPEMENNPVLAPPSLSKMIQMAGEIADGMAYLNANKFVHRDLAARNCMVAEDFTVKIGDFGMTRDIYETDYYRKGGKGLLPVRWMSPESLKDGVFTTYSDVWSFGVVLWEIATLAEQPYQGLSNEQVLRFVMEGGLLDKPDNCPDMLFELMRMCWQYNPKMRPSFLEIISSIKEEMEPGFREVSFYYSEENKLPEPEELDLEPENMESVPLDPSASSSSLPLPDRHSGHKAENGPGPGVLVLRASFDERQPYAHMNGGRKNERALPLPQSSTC
property-label: IC50 (nM)
Respond with the bare value in nM.

What value of measured IC50 is listed for `C[C@@]1(C(=O)Nc2cccnc2)CCCN1c1nc(Nc2cc(C3CC3)[nH]n2)c2cccn2n1` ?
6

---

assay-overview: Total clearance in iv dosed rat
Format: ADME, organism-based
assay-setup: in vivo
property-label: clearance (mL/min/kg)
Report only the number, with the unit mL/min/kg understood.

Quick one: clearance of C[C@@]1(C(=O)Nc2ccc(F)nc2)CCCN1c1nc(Nc2cc(C3CC3)n[nH]2)c2cccn2n1 [BMS-754807] ?
20

---

assay-overview: Plasma protein binding in mouse
Assay type: ADME, cell-free
assay-setup: read-out: PPB (converted)
property-label: fraction unbound
Give your answer as a number; write no unit.

Reported fraction unbound, compound C[C@@]1(C(=O)Nc2ccc(F)nc2)CCCN1c1nc(Nc2cc(C3CC3)n[nH]2)c2cccn2n1 [BMS-754807] : ____
0.015

---

Tested on: Mus musculus
assay-overview: Toxicity in BALB/c mouse xenografted with mouse Sal cells assessed as change in body weight at 25 mg/kg, po BID administered 8 hrs apart measured within 5 days relative to control
Type: organism-based
Set-up: dose 25 mg/kg, route oral
assay-setup: in vivo
Hi there, I'd appreciate the recorded Activity for every entry that follows.
Quick note: give the figure in g, leave out the unit.

Requested read-out: Activity. Entry: C[C@@]1(C(=O)Nc2ccc(F)nc2)CCCN1c1nc(Nc2cc(C3CC3)n[nH]2)c2cccn2n1 [BMS-754807]
0.2

Repeat with `C[C@@]1(C(=O)Nc2cnccn2)CCCN1c1nc(Nc2cc(C3CC3)[nH]n2)c2cccn2n1`
-3.6

Another molecule to check: `C[C@@]1(C(=O)Nc2cccnc2)CCCN1c1nc(Nc2cc(C3CC3)[nH]n2)c2cccn2n1`
1.9

Would you mind doing `C[C@@]1(C(=O)Nc2nccs2)CCCN1c1nc(Nc2cc(C3CC3)n[nH]2)c2cccn2n1` as well?
0.3

---

assay-overview: Permeability by PAMPA
Assay type: ADME
assay-setup: read-out: permeability
property-label: Papp

Record request: Papp value, item `C[C@@]1(C(=O)Nc2ccc(F)nc2)CCCN1c1nc(Nc2cc(C3CC3)n[nH]2)c2cccn2n1`
38.7 ×10⁻⁶ cm/s

---

assay-overview: Bioavailability in iv dosed mouse
Assay type: ADME, organism-based
assay-setup: in vivo
property-label: bioavailability

What bioavailability value was documented for this molecule, `C[C@@]1(C(=O)Nc2ccc(F)nc2)CCCN1c1nc(Nc2cc(C3CC3)n[nH]2)c2cccn2n1` ?
6%

---

assay-overview: Bioavailability in iv dosed rat
Assay type: ADME, organism-based
assay-setup: in vivo
property-label: bioavailability (%)
Respond numerically; units are % and should not be typed.

Need bioavailability, item C[C@@]1(C(=O)Nc2ccc(F)nc2)CCCN1c1nc(Nc2cc(C3CC3)n[nH]2)c2cccn2n1 [BMS-754807]
30

---

target-desc: Cytochrome P450 2C19 (Homo sapiens)
Sequence (P33261 whole entry): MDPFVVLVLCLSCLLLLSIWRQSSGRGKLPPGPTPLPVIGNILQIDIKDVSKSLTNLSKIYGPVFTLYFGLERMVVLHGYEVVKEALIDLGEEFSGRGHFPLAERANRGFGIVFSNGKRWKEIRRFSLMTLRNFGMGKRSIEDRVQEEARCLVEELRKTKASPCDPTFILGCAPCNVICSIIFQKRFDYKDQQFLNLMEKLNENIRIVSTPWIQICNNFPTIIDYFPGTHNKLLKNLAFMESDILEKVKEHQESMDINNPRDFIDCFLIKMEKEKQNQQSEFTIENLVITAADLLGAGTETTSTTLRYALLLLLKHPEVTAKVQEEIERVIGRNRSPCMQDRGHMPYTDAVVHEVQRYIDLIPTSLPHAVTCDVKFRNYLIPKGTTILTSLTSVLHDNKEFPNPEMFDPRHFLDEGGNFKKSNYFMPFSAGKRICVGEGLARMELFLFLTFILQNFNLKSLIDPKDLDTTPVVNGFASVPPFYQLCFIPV
property-label: IC50 (µM)
Field format: number, assumed µM, no unit text.

# lookup: IC50 of C[C@@]1(C(=O)Nc2ccc(F)nc2)CCCN1c1nc(Nc2cc(C3CC3)n[nH]2)c2cccn2n1 [BMS-754807]
11

---

assay-overview: Bioavailability in iv dosed dog
Type: ADME, organism-based, Canis lupus familiaris
assay-setup: in vivo
property-label: bioavailability (%)
Use % as the unit, but write only the number.

Report bioavailability for C[C@@]1(C(=O)Nc2ccc(F)nc2)CCCN1c1nc(Nc2cc(C3CC3)n[nH]2)c2cccn2n1 [BMS-754807] please.
59
